Test system: A. baumannii
Catalogue of molecules with associated MIC
All answers are understood in µM, so give the number only.

>>> df
                                   molecule  metric_name  result_unit  value_reported
0  O=C1NC(=O)c2c(NCc3cc(Cl)ccc3O)cccc21 [KM-5-25]          MIC           µM             128

Please turn your attention to the following entry.
Request: For A. baumannii, provide MIC of O=C1NC(=O)c2c(NCCCc3cc(F)ccc3O)cccc21 [JAG-005-006] please.
Response: 128

----------
pIC50 reference
System: A. baumannii
Assay: Growth curves and IC50 determination in A. baumannii
Assay type: cell-based, Acinetobacter baumannii (AB5075)
Conditions: Acinetobacter baumannii; AB5075; modified M63 media; 48 well-plates
// returns pIC50 (minus log10 of molar concentration), number only

See these solved cases before continuing.
                                   molecule  metric_name  value_reported
0  O=C1NC(=O)c2c(NCCCc3cccc(O)c3)cccc21 [Analog 16]        pIC50            3.89
1  O=C1NC(=O)c2c(NCc3cc(Cl)ccc3O)cccc21 [KM-5-25]        pIC50            4.19
2  O=C1NC(=O)c2c(NCc3ccc(Br)cc3O)cccc21 [JAG-005-030]        pIC50            4.32

Proceeding to the next molecule to report its pIC50.
Request: Which pIC50 is listed for O=C1NC(=O)c2c(NCc3cc(Br)ccc3O)cccc21 [KM-5-35] ?
Response: 4.19
